System: Fibroblast
Assay: Multiplex assay against human fibroblast
Type: toxicity, cell-based
Details: 48 h, 10 µM, compound concentration 10 uM, replicate 2
measurement_label: Population Mitotic Cells (%)
Lab book: enter the figure in %, no units written.

Quick one: give measured Population Mitotic Cells (%) for `CN(c1cc(C(F)(F)F)nc(OCCC(=O)O)n1)c1cccc2c1CCC2`
60

Quick one: give measured Population Mitotic Cells (%) for N#CCNC(=O)c1ccc(-c2ccnc(Nc3ccc(N4CCOCC4)cc3)n2)cc1 [MOMELOTINIB]
50

Quick one: give measured Population Mitotic Cells (%) for Oc1cccc(-c2nc(N3CCOCC3)c3oc4ncccc4c3n2)c1 [PI-103]
21

Quick one: give measured Population Mitotic Cells (%) for `c1ccc(-c2oc3ncnc(NC[C@@H]4CCCO4)c3c2-c2ccccc2)cc1`
0

Quick one: give measured Population Mitotic Cells (%) for C[C@@H](Oc1cc(-n2cnc3ccc(CN4CCN(C)CC4)cc32)sc1C(N)=O)c1ccccc1C(F)(F)F [GSK-461364]
25

Quick one: give measured Population Mitotic Cells (%) for CCCCCNC(=N)N/N=C/c1c[nH]c2ccc(OC)cc12.O=C(O)/C=C\C(=O)O [TEGASEROD MALEATE]
15

Quick one: give measured Population Mitotic Cells (%) for `Cl.NC[C@@H]1O[C@H](C23CC4CC(CC(C4)C2)C3)Cc2c1ccc(O)c2O`
0

Quick one: give measured Population Mitotic Cells (%) for `CCCCN(CC)c1nc(C)nc2c1c(C)cn2-c1c(C)cc(C)cc1C.Cl`
33

Quick one: give measured Population Mitotic Cells (%) for `N#Cc1cccc(C(=O)Nc2cc(-c3ccccc3)nn2-c2ccccc2)c1`
76

Quick one: give measured Population Mitotic Cells (%) for `CC(C)c1cc(Nc2nc(N3CCC[C@H](N)C3)ncc2C(N)=O)cc(C(C)C)n1`
19

Quick one: give measured Population Mitotic Cells (%) for CC(C)C[C@H](NC(=O)[C@H](Cc1ccccc1)NC(=O)CNC(=O)CNC(=O)[C@@H](N)Cc1ccc(O)cc1)C(=O)O [ENKEPHALIN]
0

Quick one: give measured Population Mitotic Cells (%) for `CC(/C=C1\SC(=S)N(CCCC(=O)Nc2ccc(C(=O)O)c(O)c2)C1=O)=C\c1ccccc1`
66

Quick one: give measured Population Mitotic Cells (%) for `C=CC(=O)Nc1cc(-n2c(=O)ccc3cnc4ccc(-c5ccc(NS(C)(=O)=O)cc5)cc4c32)ccc1C`
0

Quick one: give measured Population Mitotic Cells (%) for CC(C)[C@H](CO)Nc1nc(Nc2cccc(Cl)c2)c2ncn(C(C)C)c2n1 [PURVALANOLA]
50

Quick one: give measured Population Mitotic Cells (%) for CC(Cc1ccc(O)c(O)c1)C(C)Cc1ccc(O)c(O)c1 (stereo unspecified) [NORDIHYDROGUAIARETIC ACID]
0

Quick one: give measured Population Mitotic Cells (%) for `Cc1c(P(=S)(c2ccccc2)c2ccccc2)n2ccccc2[n+]1C/C=C/c1ccccc1.[Br-]`
15

Quick one: give measured Population Mitotic Cells (%) for CN1C(=O)[C@@H](NC(=O)c2cc3ccccc3[nH]2)N=C(c2ccccc2)c2ccccc21 [DEVAZEPIDE]
0

Quick one: give measured Population Mitotic Cells (%) for `CCCc1cc(C)[nH]c(=O)c1CNC(=O)c1cc(-c2ccc(N3CCN(C(C)C)CC3)nc2)cc2c1cnn2C(C)C`
51

Quick one: give measured Population Mitotic Cells (%) for `Cc1c(Nc2ccc(S(=O)(=O)N3CCN(C)CC3)cc2F)nc2ccc(-c3cnn(C4CC4)c3)cn2c1=O`
40

Quick one: give measured Population Mitotic Cells (%) for `Cc1ccc(S(=O)(=O)NC2c3ccccc3Oc3ccccc32)cc1`
20

Quick one: give measured Population Mitotic Cells (%) for `CN1CCN(Cc2ccc(-c3cnc4[nH]cc(-c5ccc6[nH]ccc6c5)c4c3)cc2)CC1`
0
